target: IRAK4 (Homo sapiens (Human), UniProt Q9NWZ3); assay: IRAK-4 AlphaScreen biochemical kinase assay; conditions: 1 nM IRAK4, 1 mM ATP, 3.5 h at RT
Sequence (Q9NWZ3 whole entry, species assumed): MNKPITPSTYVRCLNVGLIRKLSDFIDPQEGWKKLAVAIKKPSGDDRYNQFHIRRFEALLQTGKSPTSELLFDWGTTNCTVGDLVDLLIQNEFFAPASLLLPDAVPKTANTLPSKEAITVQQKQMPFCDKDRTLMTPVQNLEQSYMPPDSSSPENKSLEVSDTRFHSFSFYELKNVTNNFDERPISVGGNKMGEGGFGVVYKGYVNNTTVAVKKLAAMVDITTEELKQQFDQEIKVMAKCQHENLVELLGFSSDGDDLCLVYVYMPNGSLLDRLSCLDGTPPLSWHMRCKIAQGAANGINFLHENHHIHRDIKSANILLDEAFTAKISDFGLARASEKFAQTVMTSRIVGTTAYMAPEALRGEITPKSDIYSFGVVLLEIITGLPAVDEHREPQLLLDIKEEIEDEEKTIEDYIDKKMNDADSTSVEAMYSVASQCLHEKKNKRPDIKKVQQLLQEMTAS
So I've got a bunch of compounds here, and I need their IC50 values.

Take a look at these entries with their results.
COMPOUND: CCC(O)C(N)c1cccc(-c2ccc3cnn(-c4cccc(CO)n4)c3c2)n1 (centres unmarked)
MEASURED ON: IRAK4 (Homo sapiens (Human), UniProt Q9NWZ3)
OBSERVED: < 100 nM
//
COMPOUND: CCC[C@H](N)c1cccc(-c2cc(N3CCS(=O)(=O)CC3)c3cnn(-c4cccc(CO)n4)c3c2)n1
MEASURED ON: IRAK4 (Homo sapiens (Human), UniProt Q9NWZ3)
OBSERVED: < 100 nM
//
COMPOUND: CC[C@H](N)c1cccc(-c2cc(OCCOC)c3cnn(-c4cccc(CO)n4)c3c2)n1
MEASURED ON: IRAK4 (Homo sapiens (Human), UniProt Q9NWZ3)
OBSERVED: < 100 nM
//
COMPOUND: C[C@H](N)c1cccc(-c2cc(-n3ccnc3)c3cnn(-c4cccc(CO)n4)c3c2)n1
MEASURED ON: IRAK4 (Homo sapiens (Human), UniProt Q9NWZ3)
OBSERVED: < 100 nM
//
COMPOUND: CC[C@H](F)[C@H](N)c1cccc(-c2cc(OCCOC)c3cnn(-c4cccc(CO)n4)c3c2)n1
MEASURED ON: IRAK4 (Homo sapiens (Human), UniProt Q9NWZ3)
OBSERVED: < 100 nM

The following compounds each have a reported value; give each one's IC50.
1. Cc1cccc(-n2ncc3c(OCC4CC4)cc(-c4cccc(C(C)N)n4)cc32)n1 (centres unmarked)
2. N#CCc1cccc(-n2ncc3ccc(-c4cncc(N)c4)cc32)n1
3. CC(N)c1cccc(-c2cc(F)c3cnn(-c4cccc(C(F)(F)F)n4)c3c2)n1 (centres unmarked)

1. 100 to 1000 nM
2. 100 to 1000 nM
3. < 100 nM

The values you see were collected from patent US10246456B2.
